This section presents sequences with their documented self-splicing fitness (ln) values.
- METHOD_DESCRIPTION: self-splicing fitness, log relative to wild type (ln ratio); higher = more splicing; Tetrahymena group I intron in knt gene, E. coli kanamycin selection, DiMSum; sequences stand for … in CUCUCU…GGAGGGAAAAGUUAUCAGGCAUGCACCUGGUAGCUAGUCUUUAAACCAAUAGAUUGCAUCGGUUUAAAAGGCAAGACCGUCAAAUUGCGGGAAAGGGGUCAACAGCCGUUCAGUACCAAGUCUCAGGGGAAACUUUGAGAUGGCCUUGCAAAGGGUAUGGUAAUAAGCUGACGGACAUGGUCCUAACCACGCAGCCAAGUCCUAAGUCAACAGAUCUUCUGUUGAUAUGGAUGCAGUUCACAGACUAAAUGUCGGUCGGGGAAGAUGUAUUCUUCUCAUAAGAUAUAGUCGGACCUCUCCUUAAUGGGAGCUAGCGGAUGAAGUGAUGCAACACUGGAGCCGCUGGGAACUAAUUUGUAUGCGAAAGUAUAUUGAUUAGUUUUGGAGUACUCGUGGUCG;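 further: selection with 25 µg/mL kanamycin versus none on LB agar overnight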
- CONDITION: 37 °C

Record excerpt, results attached:
- SEQUENCE_STRING: "GCUCAGCAAUAUUACGAACU"
  OUTCOME_MEASURE: "self-splicing fitness (ln)"
  OBSERVED_VALUE: -0.48
- SEQUENCE_STRING: "CAACAGCAAUAUUACGUACU"
  OUTCOME_MEASURE: "self-splicing fitness (ln)"
  OBSERVED_VALUE: -0.917

Form: sequence = CCUAAGCAAUAUUACGAAGU ; self-splicing fitness (ln) = -1.21

Form: sequence = UGUGAGCAAUAUUACGGUUC ; self-splicing fitness (ln) = -2.9

Data provenance is the supplement of paper PMC7877785.
